Just for reference, patent US7238711 is where these values come from.

- tested_system: T1, Duffy Antigen Receptor for Chemokines (DARC) (human), Q16570
- T1 chain: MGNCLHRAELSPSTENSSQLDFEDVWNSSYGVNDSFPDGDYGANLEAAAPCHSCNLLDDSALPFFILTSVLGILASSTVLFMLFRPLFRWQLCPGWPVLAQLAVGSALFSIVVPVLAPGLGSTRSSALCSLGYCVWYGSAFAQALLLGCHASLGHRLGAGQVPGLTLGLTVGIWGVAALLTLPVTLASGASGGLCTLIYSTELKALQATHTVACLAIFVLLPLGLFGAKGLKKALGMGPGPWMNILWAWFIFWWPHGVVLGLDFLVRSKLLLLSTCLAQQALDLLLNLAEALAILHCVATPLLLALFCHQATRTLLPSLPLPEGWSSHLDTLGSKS
- experimental_protocol: estimated ka for red blood cells divided by average inhibitory ED50
No end group written: not given here.
Duffy selectivity values by entry

binder: EICADPSEEWVQ (not fully specified) [Ser7Glu8Glu9 peptide 3(1-12)[MCP-1]]
Duffy selectivity: 0.59

binder: EICLDPKQKWIQ (not fully specified) [Leu4Ile11 peptide 3(1-12)[MCP-1]]
Duffy selectivity: 37.8

binder: CADPKQKWVQ (not fully specified) [Pep3(3-12)[MCP-1]]
Duffy selectivity: 1.21

binder: EICADPSQKWVQ (not fully specified) [Ser7 peptide 3(1-12)[MCP-1]]
Duffy selectivity: 2
